- Test system: Leishmania donovani
- protocol description: Antimicrobial activity against promastigote stage of Leishmania donovani after 72 hrs by Alamar Blue assay
- Assay type: functional, organism-based
- experimental context: Leishmania donovani, 72 h; read-out: IC50
property: pIC50
pIC50 is a log-scale quantity: -log10 of the concentration expressed in molar.

See these solved cases before continuing.
test smiles: c1ccc2c(CN3CCc4c([nH]c5ccccc45)C3)c3ccccc3cc2c1
pIC50: 4.80
//
test smiles: Clc1ccc(CN2CCc3c([nH]c4ccccc34)C2)s1
pIC50: 5.04
//
test smiles: Cc1nccc2c1[nH]c1ccccc12
pIC50: 4.72
//
test smiles: Cn1cc(C(=O)N2CCc3c([nH]c4ccccc34)C2)c2ccccc21
pIC50: 4.28
//
test smiles: O=C(c1ccc(-c2cccc([N+](=O)[O-])c2)o1)N1CCc2c([nH]c3ccccc23)C1
pIC50: 4.18
//
test smiles: O=C(c1ccc(Br)o1)N1CCc2c([nH]c3ccccc23)C1
pIC50: 4.56
//
test smiles: c1ccc2c3c([nH]c2c1)CN(Cc1ccncc1)CC3
pIC50: 3.92
//
test smiles: Cc1ccsc1C(=O)N1CCc2c([nH]c3ccccc23)C1
pIC50: 4.59

Shift focus to the following entry.
Exam item: What value of measured pIC50 is listed for "C[C@@H]1[C@H](O)[C@@H](C)/C=C/C=C/C=C/C=C/C=C/C=C/C=C/[C@H](O[C@@H]2O[C@H](C)[C@@H](O)[C@H](N)[C@@H]2O)C[C@@H]2O[C@](O)(C[C@@H](O)C[C@@H](O)[C@H](O)CC[C@@H](O)C[C@@H](O)CC(=O)O[C@H]1C)C[C@H](O)[C@H]2C(=O)O" ?
Marked response: 6.52

----------
- System: Leishmania donovani
- protocol description: Antimicrobial activity against promastigote stage of Leishmania donovani after 72 hrs by Alamar Blue assay
- Format: functional, organism-based
- experimental context: Leishmania donovani, 72 h; read-out: IC50
property: IC50 (µM)
The reply should be a number in µM, with the unit left off.

Below, each entry is followed by its recorded IC50 result.
test smiles: COc1ccc2c3c([nH]c2c1)C(C)=NCC3
measured result: 117
//
test smiles: O=C(c1cc2ccccc2o1)N1CCc2c([nH]c3ccccc23)C1
measured result: 49.5
//
test smiles: c1ccc2cc(CN3CCc4c([nH]c5ccccc45)C3)ccc2c1
measured result: 22.1
//
test smiles: O=[N+]([O-])c1ccc(CN2CCc3c([nH]c4ccccc34)C2)o1
measured result: 33.8
//
test smiles: COc1ccc2c(c1)[nH]c1c(C)nccc12
measured result: 3.7

Exam item: What measured IC50 goes with "N=C(N)c1ccc(OCCCCCOc2ccc(C(=N)N)cc2)cc1" ?
Marked response: 4.8

Exam item: Please report the recorded IC50 for "c1ccc2[nH]c(CN3CCc4c([nH]c5ccccc45)C3)nc2c1" .
Marked response: 118

Exam item: Param item = "O=C(c1ccc([N+](=O)[O-])s1)N1CCc2c([nH]c3ccccc23)C1" ; retrieve measured IC50.
Marked response: 12.7

Exam item: # IC50 lookup, item "O=C(c1ccc(-c2ccc(-c3ccccc3)cc2)o1)N1CCc2c([nH]c3ccccc23)C1"
Marked response: 75.3

Exam item: Requested field: IC50. Item: "O=C(c1ccc(-c2cc(C(F)(F)F)ccc2Cl)o1)N1CCc2c([nH]c3ccccc23)C1"
Marked response: 39.6

----------
- Test system: Vero
- protocol description: Cytotoxicity against African green monkey Vero cells up to 25 ug/ml after 48 hrs by neutral red assay
- Type: cell-based
- experimental context: chlorocebus sabaeus
property: Activity

Known results for compounds:
test smiles: c1ccc2cc(CN3CCc4c([nH]c5ccccc45)C3)ccc2c1
property: Activity
measured result: Non-toxic
//
test smiles: Clc1ccc(CN2CCc3c([nH]c4ccccc34)C2)s1
property: Activity
measured result: Non-toxic
//
test smiles: O=C(c1ccc(-c2cccc([N+](=O)[O-])c2)o1)N1CCc2c([nH]c3ccccc23)C1
property: Activity
measured result: Non-toxic
//
test smiles: O=C(c1ccc(-c2ccc(-c3ccccc3)cc2)o1)N1CCc2c([nH]c3ccccc23)C1
property: Activity
measured result: Non-toxic
//
test smiles: Cc1ccsc1C(=O)N1CCc2c([nH]c3ccccc23)C1
property: Activity
measured result: Non-toxic

Exam item: # lookup: Activity of "Cn1cc(C(=O)N2CCc3c([nH]c4ccccc34)C2)c2ccccc21"
Marked response: Non-toxic

----------
- Test system: Leishmania donovani
- protocol description: Antimicrobial activity against axenic amastigote stage of Leishmania donovani after 72 hrs by Alamar Blue assay
- Assay type: functional, organism-based
property: IC50

test smiles: O=C1NCCN1C(=O)N1CCc2c([nH]c3ccccc23)C1
measured on: Leishmania donovani
measured result: Not Active

test smiles: c1ccc2c3c([nH]c2c1)CN(Cc1ccncc1)CC3
measured on: Leishmania donovani
measured result: Not Active

test smiles: O=C(c1ccc2ccccc2n1)N1CCc2c([nH]c3ccccc23)C1
measured on: Leishmania donovani
measured result: Not Active
